Values compiled from patent US20230310540A1.

- Tested on: E. coli
- Format: cell-based
- test_conditions: no RBC; Table 2
Bridge positions count the residues as written; N and C are the ends. Square brackets hold non-standard residues; d marks the D form. Peptide text beside a SMILES is read from it.
measured_endpoint: MIC, E. coli, No RBC (µM)
All answers are understood in µM, so give the number only.

Here are 2 compounds together with their reported answers.
compound	MIC, E. coli, No RBC, µM
CC(C)C[C@@H]1NC(=O)[C@H](CCCNC(=N)N)NC(=O)[C@H](CCCNC(=N)N)NC(=O)[C@H](C)NC(=O)[C@H](Cc2c[nH]c3ccccc23)NC(=O)[C@H](CCCNC(=N)N)NC(=O)[C@H](CCCNC(=N)N)NC(=O)CC[C@@H](C(N)=O)NC(=O)[C@H](CCCNC(=N)N)NC(=O)[C@H](CCCNC(=N)N)NC(=O)[C@H](Cc2ccccc2)NC(=O)[C@H](C)NC(=O)[C@H](Cc2ccccc2)NC(=O)[C@H](C)NC1=O [CYCLIZED-L-CONGA-E] (RRWARRLAFAFRRE-NH2; lactam N-14)	24
CC(C)C[C@@H](NC(=O)CNC(=O)[C@@H](CCCNC(=N)N)NC(=O)[C@@H](CCCNC(=N)N)NC(=O)[C@@H](C)NC(=O)[C@@H](Cc1c[nH]c2ccccc12)NC(=O)[C@@H](CCCNC(=N)N)NC(=O)[C@H](N)CCCNC(=N)N)C(=O)N[C@H](C)C(=O)N[C@H](Cc1ccccc1)C(=O)N[C@H](C)C(=O)N[C@H](Cc1ccccc1)C(=O)N[C@H](CCCNC(=N)N)C(=O)N[C@H](CCCNC(=N)N)C(N)=O [D-CONGA-G7, rrwarrglafafrr (All D)] (H-[dR][dR][dW][dA][dR][dR]G[dL][dA][dF][dA][dF][dR][dR]-NH2)	1.3

Then there is this compound:
# get_value(readout='MIC, E. coli, No RBC', item= CC(C)C[C@@H](NC(=O)[C@@H](CCCNC(=N)N)NC(=O)[C@H](N)CCCNC(=N)N)C(=O)N[C@H](C)C(=O)N[C@H](Cc1ccccc1)C(=O)N[C@H](C)C(=O)N[C@H](Cc1ccccc1)C(=O)N[C@H](Cc1c[nH]c2ccccc12)C(=O)N[C@H](C)C(=O)N[C@H](CCCNC(=N)N)C(=O)N[C@H](CCCNC(=N)N)C(=O)N[C@H](CCCNC(=N)N)C(=O)N[C@H](CCCNC(=N)N)C(N)=O [D-CONGA-FLIP, rrlafafwarrrr (All D)] (H-[dR][dR][dL][dA][dF][dA][dF][dW][dA][dR][dR][dR][dR]-NH2) )
1

----------
- System: E. coli
- Type: cell-based
- test_conditions: no RBC; Table 2
Square brackets hold non-standard residues; d marks the D form. Peptide text beside a SMILES is read from it.
MIC, E. coli, No RBC for assorted compounds
All answers are understood in µM, so give the number only.

compound	target_desc	result
CC(C)C[C@@H](NC(=O)[C@@H](CCCNC(=N)N)NC(=O)[C@@H](CCCNC(=N)N)NC(=O)[C@@H](C)NC(=O)[C@@H](Cc1c[nH]c2ccccc12)NC(=O)[C@@H](CCCNC(=N)N)NC(=O)[C@H](N)CCCNC(=N)N)C(=O)N[C@H](C)C(=O)N[C@H](Cc1ccccc1)C(=O)N[C@H](C)C(=O)N[C@H](Cc1ccccc1)C(=O)N[C@H](CCCNC(=N)N)C(N)=O [D-CONGA-ΔR13, rrwarrlafafr (All D)] (H-[dR][dR][dW][dA][dR][dR][dL][dA][dF][dA][dF][dR]-NH2)	E. coli	0.9

# get_value(readout='MIC, E. coli, No RBC', item= CC(C)C[C@@H](NC(=O)[C@@H](CCCNC(=N)N)NC(=O)[C@@H](CCCNC(=N)N)NC(=O)[C@@H](C)NC(=O)[C@@H](Cc1c[nH]c2ccccc12)NC(=O)[C@@H](CCCNC(=N)N)NC(=O)[C@H](N)CCCNC(=N)N)C(=O)N[C@H](C)C(=O)N[C@H](Cc1ccccc1)C(=O)N[C@H](C)C(=O)N[C@H](Cc1ccccc1)C(=O)N[C@H](CCCNC(=N)N)C(=O)N[C@H](CCCNC(=N)N)C(N)=O [D-CONGA, rrwarrlafafrr (All D), reference compound] (H-[dR][dR][dW][dA][dR][dR][dL][dA][dF][dA][dF][dR][dR]-NH2) )
1.0
